I'd appreciate it if you could supply Cmax values for the items below.
Assay overview: Pharmacokinetic assay in mice, per oral administration
Format: in vivo
Study conditions: male, mouse; PO 10 mg/kg, ICR mice, plasma, original compound analyzed; class symbol; read-out: Cmax

Please review the entries below; each comes with its answer.
COc1cc(C(=O)Nc2cccc(-c3cccc(NC(=O)c4cc(OC)c(CNCCO)cn4)c3C)c2C)ncc1CNCCO | 100 to 500 ng/mL
Cc1c(NC(=O)c2ccc(CNCCO)cn2)cccc1-c1cccc(NC(=O)c2ccc(CNCCO)cn2)c1C | ≤ 100 ng/mL
COc1cc(C(=O)Nc2cccc(-c3cccc(NC(=O)c4cc(OC)c(CN5CC(C)(O)C5)cn4)c3C)c2C)ncc1CN1CC(C)(O)C1 | ≤ 100 ng/mL

// next entry
Form field Cmax, entry "Cc1cc(C(=O)Nc2cccc(-c3cccc(NC(=O)c4cc(C)c(CNCCO)cn4)c3C)c2C)ncc1CNCCO" : 100 to 500 ng/mL

====

Study system: interaction between PD-1 and PD-L1 (Homo sapiens (Human), UniProt Q9NZQ7)
Sequence (Q9NZQ7 19-238): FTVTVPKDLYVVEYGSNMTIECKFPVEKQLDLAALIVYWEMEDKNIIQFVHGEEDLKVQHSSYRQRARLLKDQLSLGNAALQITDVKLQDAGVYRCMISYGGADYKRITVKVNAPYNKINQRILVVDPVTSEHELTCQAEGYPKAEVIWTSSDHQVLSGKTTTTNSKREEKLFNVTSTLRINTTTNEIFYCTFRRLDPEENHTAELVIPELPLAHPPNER
Assay overview: PD1-PDL1 HTRF binding activity test (Cisbio PD-1/PD-L1 binding assay kit)
Property label: pIC50
Numbers only, as −log10 of the molar value.

// sample Cc1c(NC(=O)c2ccc(CNCCO)cn2)cccc1-c1cccc(NC(=O)c2ccc(CNCCO)cn2)c1C [Example 1] , its pIC50 was 9.77

====

Assay overview: Pharmacokinetic assay in mice, per oral administration
Assay type: in vivo
Study conditions: male, mouse; PO 10 mg/kg, ICR mice, plasma, original compound analyzed; read-out: Cmax
Property label: Cmax (ng/mL)
Answers are plain numbers, in ng/mL.

Entry "Cc1cc(C(=O)Nc2cccc(-c3cccc(NC(=O)c4cc(C)c(CNC(CO)CO)cn4)c3C)c2C)ncc1CNC(CO)CO" ; Cmax = 319

====

Study system: interaction between PD-1 and PD-L1 expressed on cell surfaces (Homo sapiens (Human), UniProt Q9NZQ7)
Sequence (Q9NZQ7 19-290): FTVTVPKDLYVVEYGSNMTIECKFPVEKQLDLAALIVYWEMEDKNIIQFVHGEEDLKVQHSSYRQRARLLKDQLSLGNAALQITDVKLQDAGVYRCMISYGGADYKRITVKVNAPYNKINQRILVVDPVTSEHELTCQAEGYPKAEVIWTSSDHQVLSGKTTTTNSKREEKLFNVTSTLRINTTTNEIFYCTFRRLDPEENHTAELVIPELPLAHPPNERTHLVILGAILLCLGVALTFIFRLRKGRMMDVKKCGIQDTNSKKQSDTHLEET
Assay overview: Jurkat reporter gene cellular assay (Jurkat/NF-κB-luc/PD1 cells cocultured with Raji-PD-L1 cells, OKT-3 stimulation)
Format: cell-based
Study conditions: NF-κB-luc reporter activation fold, 6 hrs; read-out: Cell Activity EC50
Protocol: B. Jurkat Reporter Gene Cellular Assay The effect of compounds of the examples of the present invention and positive compounds on the interaction between PD-1 and PD-L1 expressed on cell surfaces, and the related influence on T cell functions, were determined by a Jurkat reporter gene cellular assay. […] 4. the reading of each well treated with the compound was compared with the reading of each well treated with DMSO to obtain the activation fold of the compound; and […]
Assign pEC50 to each entry below.
Answers are plain numbers, as −log10 of the molar value.

Cc1c(NC(=O)c2cc(C3CC3)c(CN[C@H](C)CO)cn2)cccc1-c1cccc(NC(=O)c2cc(C3CC3)c(CN[C@H](C)CO)cn2)c1C [Example 95] | 6.90
COc1cc(C(=O)Nc2cccc(-c3cccc(NC(=O)c4cc(OC)c(CNCCN=S(C)(C)=O)cn4)c3C)c2C)ncc1CNCCN=S(C)(C)=O [Example 89] | 6.37

Moving on to another compound below.
The compound listed as Cc1c(NC(=O)c2ccc(CN[C@H](CO)C(=O)O)cn2)cccc1-c1cccc(NC(=O)c2ccc(CN[C@H](CO)C(=O)O)cn2)c1C [Example 6] shows pEC50 equal to 6.18

====

Assay overview: Pharmacokinetic assay in mice, per oral administration
Format: in vivo
Study conditions: male, mouse, plasma; PO 10 mg/kg, ICR mice, original compound analyzed
Property label: AUC(0-t) (ng·h/mL)
Give bare numbers, in ng·h/mL.

What the record says about "Cc1cc(C(=O)Nc2cccc(-c3cccc(NC(=O)c4cc(C)c(CNCCO)cn4)c3C)c2C)ncc1CNCCO" : AUC(0-t) is 1680
